Reference for the values: patent US20230365675A1

Target: Biotinylated CD33 protein (UniProt P20138)
Sequence (P20138 18-259 limits assumed): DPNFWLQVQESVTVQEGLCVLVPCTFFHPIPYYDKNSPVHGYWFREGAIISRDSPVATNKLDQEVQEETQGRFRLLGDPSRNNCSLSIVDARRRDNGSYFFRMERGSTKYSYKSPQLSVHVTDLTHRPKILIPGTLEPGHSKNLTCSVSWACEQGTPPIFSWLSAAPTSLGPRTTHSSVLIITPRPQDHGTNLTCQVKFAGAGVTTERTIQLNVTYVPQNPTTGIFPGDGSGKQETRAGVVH
Test: Octet competition on biotinylated CD33; competitor h195
readout kind: Octet signal
Could you respond with only the numeric value?

sdCD33_7 (VHH, sdAb from a naive llama phage library; also called 420; sdAb420) VHH: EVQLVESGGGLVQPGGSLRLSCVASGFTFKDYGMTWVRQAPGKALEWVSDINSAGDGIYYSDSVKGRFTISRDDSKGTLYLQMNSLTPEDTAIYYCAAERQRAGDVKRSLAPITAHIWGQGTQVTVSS = 0.579
sdCD33_8 (VHH, sdAb from a naive llama phage library; also called 424; sdAb424) VHH: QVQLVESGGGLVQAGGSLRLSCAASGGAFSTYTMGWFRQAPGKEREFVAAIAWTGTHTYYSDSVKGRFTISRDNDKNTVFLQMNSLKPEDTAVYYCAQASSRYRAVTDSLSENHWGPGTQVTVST = 0.648
sdCD33_5 (VHH, sdAb from a naive llama phage library; also called 413; sdAb413) VHH: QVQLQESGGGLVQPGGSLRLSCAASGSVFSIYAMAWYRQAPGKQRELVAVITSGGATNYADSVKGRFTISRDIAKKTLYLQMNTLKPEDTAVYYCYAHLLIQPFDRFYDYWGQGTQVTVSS = 0.648

Lab note: next binder to report on.
Lookup: Fill in Octet signal for record sdCD33_4 (VHH) VHH: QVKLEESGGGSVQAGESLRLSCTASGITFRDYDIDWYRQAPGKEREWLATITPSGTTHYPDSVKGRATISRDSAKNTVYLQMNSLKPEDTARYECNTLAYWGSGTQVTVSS
Found: 0.355
